- tested target: binding of His-XIAP(BIR2)-avi fusion protein to GST-RIPK2 fusion protein (RIPK2/XIAP) (Homo sapiens, UniProt O43353)
- Construct: made in house; host or cells: baculovirus infected Sf9 cells
- Sequence (O43353 1-310 limits assumed): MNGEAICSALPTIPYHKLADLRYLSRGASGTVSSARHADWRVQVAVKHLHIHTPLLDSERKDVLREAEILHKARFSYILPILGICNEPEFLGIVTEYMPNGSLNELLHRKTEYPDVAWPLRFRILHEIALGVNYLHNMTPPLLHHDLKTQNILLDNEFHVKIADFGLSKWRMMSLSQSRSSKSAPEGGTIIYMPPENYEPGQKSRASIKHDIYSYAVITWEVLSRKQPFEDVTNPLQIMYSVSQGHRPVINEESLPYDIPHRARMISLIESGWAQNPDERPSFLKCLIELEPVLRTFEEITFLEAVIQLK
- assay comment: RIPK2-XIAP binding competition PPI assay (TR-FRET)
- condition info: RIPK2/XIAP binding competition PPI assay, Amax; read-out: PPI Amax bin
- Excerpt: The ability of selected compounds of Formula (I) to inhibit the binding of an His-XIAP(BIR2)-avi fusion protein to a GST-RIPK2 fusion protein was quantified employing the TR-FRET-based competition assay as described in the following paragraphs. […]

>  <compound>
C[C@H](CO)Oc1cc2ncc(-c3cc(Cl)c(N)nc3F)n2cc1S(=O)(=O)C(C)(C)C [Example 258]

>  <Emax>
> 80%

$$$$
>  <compound>
CC(C)(C)S(=O)(=O)c1cn2c(-c3cc(F)c(N)nc3F)cnc2cc1OCCN1CCOC1=O [Example 29]

>  <Emax>
> 80%

$$$$
>  <compound>
COc1cc2ncc(-c3cc(F)c(N)nc3F)n2cc1S(=O)(=O)N1CCN(C)CC1 [Example 165]

>  <Emax>
> 80%

$$$$
>  <compound>
C[C@H](O)COc1cc2ncc(-c3cc4cc[nH]c4nc3F)n2cc1S(=O)(=O)C(C)(C)C [Example 268]

>  <Emax>
> 80%

$$$$
>  <compound>
Nc1cc(-c2cnn3ccc(C(F)(F)F)cc23)cc(F)n1 [Example 3]

>  <Emax>
< 30%

$$$$
>  <compound>
C[C@H](CO)COc1cc2ncc(-c3cc4cc[nH]c4nc3F)n2cc1S(=O)(=O)C(C)(C)C [Example 228]

>  <Emax>
> 80%

$$$$
>  <compound>
Cn1ccc(-c2cc3ncc(-c4cc(F)c(N)nc4F)n3cc2S(=O)(=O)C(C)(C)C)n1 [Example 27]

>  <Emax>
> 80%

$$$$
>  <compound>
COc1cc2ncc(-c3cc(F)c(OC)c4nn(CCO)cc34)n2cc1S(=O)(=O)C(C)(C)C [Example 122]

>  <Emax>
< 30%

$$$$

----------
# reported IC50; entries follow
- tested target: binding of His-XIAP(BIR2)-avi fusion protein to GST-RIPK2 fusion protein (RIPK2/XIAP) (Homo sapiens)
- Construct: made in house; host or cells: baculovirus infected Sf9 cells
- assay comment: RIPK2-XIAP binding competition PPI assay (TR-FRET)
- condition info: RIPK2/XIAP binding competition PPI assay; read-out: PPI IC50 bin

>  <molecule>
COc1cn2ncc(-c3cc(F)c(N)nc3F)c2nc1N1C(=O)OCC1(C)C

>  <IC50>
> 20 nM

$$$$
>  <molecule>
COc1cc2ncc(-c3cc(NS(=O)(=O)c4cnn(C)c4)c(OC)c(OC)c3)n2cc1S(=O)(=O)C(C)(C)C

>  <IC50>
< 1 nM

$$$$
>  <molecule>
CC(C)(C)S(=O)(=O)c1cn2c(-c3cnc4[nH]cc(Cl)c4c3)cnc2cc1OCCO

>  <IC50>
1 to 2.5 nM

$$$$
>  <molecule>
COc1cn2ncc(-c3cc(F)c(N)nc3F)c2cc1C1(O)CCN(C)CC1

>  <IC50>
2.5 to 20 nM

$$$$
>  <molecule>
COc1cc2ncc(-c3cc(F)c(N)nc3F)n2cc1S(=O)(=O)C(C)(C)CCO

>  <IC50>
2.5 to 20 nM

$$$$
>  <molecule>
CC(C)(C)S(=O)(=O)c1cn2c(-c3cc(Cl)c(N)nc3F)cnc2cc1OCC(=O)O

>  <IC50>
> 20 nM

$$$$
>  <molecule>
COc1cc2ncc(-c3ccc4nc(N)oc4c3)n2cc1S(=O)(=O)C(C)(C)C

>  <IC50>
> 20 nM

$$$$
>  <molecule>
CCCS(=O)(=O)Nc1cc(-c2cnc3cc(OC)c(S(=O)(=O)C(C)(C)C)cn23)cc(-n2cccn2)c1

>  <IC50>
> 20 nM

$$$$
>  <molecule>
Cc1c(-c2cnc3cc(OCCO)c(S(=O)(=O)C(C)(C)C)cn23)cnc(N)c1F

>  <IC50>
> 20 nM

$$$$
>  <molecule>
COc1ccn2ncc(-c3cc(N)cc(F)c3)c2n1

>  <IC50>
> 20 nM

$$$$
>  <molecule>
COc1cc2ncc(-c3cccc(NS(=O)(=O)C4CCNC4)c3)n2cc1S(=O)(=O)C(C)(C)C (stereo not shown)

>  <IC50>
2.5 to 20 nM

$$$$
>  <molecule>
COc1cc2ncc(-c3cnc4c(c3)OCC4O)n2cc1S(=O)(=O)C(C)(C)C (stereo not shown)

>  <IC50>
> 20 nM

$$$$
>  <molecule>
COc1cc2ncc(-c3cc(F)c(N)nc3F)n2cc1S(=O)(=O)N(C)C

>  <IC50>
> 20 nM

$$$$
>  <molecule>
COc1cc2ncc(-c3cc(NS(=O)(=O)c4cnn(C)c4)c(OC)c(OC)c3)n2cc1N1CC(C)CC1=O (single isomer, unassigned) [Example 275]

>  <IC50>
1 to 2.5 nM

$$$$
>  <molecule>
C[C@@H](O)COc1cc2ncc(-c3ccc(N)nc3F)n2cc1S(=O)(=O)C(C)(C)C

>  <IC50>
> 20 nM

$$$$
>  <molecule>
COc1cc2ncc(-c3cc(Cl)c(OC)c(NS(=O)(=O)c4cnn(C)c4)c3)n2cc1S(=O)(=O)C(C)(C)C

>  <IC50>
< 1 nM

$$$$

----------
- tested target: binding of His-XIAP(BIR2)-avi fusion protein to GST-RIPK2 fusion protein (RIPK2/XIAP) (Homo sapiens)
- Construct: made in house; host or cells: baculovirus infected Sf9 cells
- assay comment: RIPK2-XIAP binding competition PPI assay (TR-FRET)
- condition info: RIPK2/XIAP binding competition PPI assay, Amax; read-out: PPI Amax bin
# reported Emax; entries follow

>  <compound>
COc1cc2ncc(-c3cccc(NS(=O)(=O)C4CCNC4)c3)n2cc1S(=O)(=O)C(C)(C)C (centres unmarked) [Example 154]

>  <Emax>
> 80%

$$$$
>  <compound>
C[C@H](CO)COc1cc2ncc(-c3cc(F)c(N)nc3F)n2cc1S(=O)(=O)C(C)(C)C [Example 176]

>  <Emax>
> 80%

$$$$
>  <compound>
C[C@H](CO)COc1cn2ncc(-c3cc(F)c(N)nc3F)c2cc1S(=O)(=O)C(C)(C)C [Example 195]

>  <Emax>
> 80%

$$$$
>  <compound>
COc1cc2ncc(-c3cnc4c(c3)CC(=O)N4)n2cc1S(=O)(=O)C(C)(C)C [Example 83]

>  <Emax>
< 30%

$$$$
>  <compound>
COc1cc2ncc(-c3cc(N)nc(F)c3)n2cc1C(F)(F)F [Example 2]

>  <Emax>
< 30%

$$$$
>  <compound>
COc1cc2ncc(-c3cnc4c(c3)OCCN4C)n2cc1S(=O)(=O)C(C)(C)C [Example 123]

>  <Emax>
30 to 55%

$$$$
>  <compound>
COc1cc2ncc(-c3ccc4cncn4c3)n2cc1S(=O)(=O)C(C)(C)C [Example 113]

>  <Emax>
< 30%

$$$$
>  <compound>
Cc1cc2cc(-c3cnc4cc(OCCO)c(S(=O)(=O)C(C)(C)C)cn34)cnc2[nH]1 [Example 232]

>  <Emax>
30 to 55%

$$$$
>  <compound>
COc1cc2ncc(-c3cc(F)c(OC)c4[nH]ncc34)n2cc1S(=O)(=O)C(C)(C)C [Example 120]

>  <Emax>
55 to 80%

$$$$
>  <compound>
Cc1c(-c2cnc3cc(OCCO)c(S(=O)(=O)C(C)(C)C)cn23)cnc(N)c1F [Example 50]

>  <Emax>
55 to 80%

$$$$
>  <compound>
Cc1c[nH]c2ncc(-c3cnc4cc(OCCO)c(S(=O)(=O)C(C)(C)C)cn34)cc12 [Example 218]

>  <Emax>
55 to 80%

$$$$
>  <compound>
COc1cc2ncc(-c3ccn4nccc4c3)n2cc1S(=O)(=O)C(C)(C)C [Example 94]

>  <Emax>
< 30%

$$$$
>  <compound>
COC(=O)Nc1ccc(-c2cnc3cc(OC)c(S(=O)(=O)C(C)(C)C)cn23)cn1 [Example 9]

>  <Emax>
< 30%

$$$$
>  <compound>
CC(C)(C)S(=O)(=O)c1cc2c(-c3cc(F)c(N)nc3F)cnn2cc1OCC(O)CO (centres unmarked) [Example 246]

>  <Emax>
> 80%

$$$$
>  <compound>
CC(C)(C)C(C)(O)c1cn2c(-c3cc(F)c(N)nc3F)cnc2cc1OCCO (centres unmarked) [Example 193]

>  <Emax>
> 80%

$$$$
>  <compound>
CC(C)(C)S(=O)(=O)c1cn2c(-c3cc(Cl)c(N)nc3F)cnc2cc1OCC(F)(F)CN [Example 243]

>  <Emax>
> 80%

$$$$
>  <compound>
COc1cc2ncc(-c3cc(F)c(OC)c(NC(=O)Cc4cnn(C)c4)c3)n2cc1S(=O)(=O)C(C)(C)C [Example 297]

>  <Emax>
> 80%

$$$$
>  <compound>
COc1c(F)cc(-c2cnc3cc(OCCO)c(S(=O)(=O)C(C)(C)C)cn23)cc1NS(=O)(=O)c1cnn(C)c1 [Example 225]

>  <Emax>
> 80%

$$$$
>  <compound>
CCCS(=O)(=O)Nc1cc(-c2cnc3cc(OC)c(S(=O)(=O)C(C)(C)CO)cn23)cc(F)c1OC [Example 126]

>  <Emax>
> 80%

$$$$
>  <compound>
COc1cc2ncc(-c3cc(F)c(N)nc3F)n2cc1S(=O)(=O)C1(C)CC1 [Example 68]

>  <Emax>
> 80%

$$$$
>  <compound>
CCCS(=O)(=O)Nc1cc(-c2cnc3cc(OC)c(S(=O)(=O)C(C)(C)CO)cn23)cc(OC)c1OC [Example 59]

>  <Emax>
> 80%

$$$$
>  <compound>
COc1cc2ncc(-c3cccc(NS(=O)(=O)c4cnn(C)c4)c3)n2cc1S(=O)(=O)C(C)(C)C [Example 294]

>  <Emax>
> 80%

$$$$
>  <compound>
COc1cc2ncc(-c3cc(F)c(N)nc3F)n2cc1C1(O)CCN(C)CC1 [Example 74]

>  <Emax>
> 80%

$$$$
>  <compound>
COc1cc2ncc(-c3cc(F)c(OC)c(NS(=O)(=O)c4cnn(C)c4)c3)n2cc1S(=O)(=O)C(C)C [Example 262]

>  <Emax>
> 80%

$$$$
>  <compound>
COc1cc2ncc(-c3ccc(N)nc3F)n2cc1S(=O)(=O)C(C)(C)CO [Example 58]

>  <Emax>
> 80%

$$$$
>  <compound>
COc1cc2ncc(-c3cc(N)cc4[nH]ncc34)n2cc1S(=O)(=O)C(C)(C)C [Example 7]

>  <Emax>
30 to 55%

$$$$
>  <compound>
COc1cc2ncc(-c3cc(Cl)c(OC)c(NS(=O)(=O)c4cnn(C)c4)c3)n2cc1S(=O)(=O)C(C)(C)C [Example 283]

>  <Emax>
> 80%

$$$$
>  <compound>
COc1cc2ncc(-c3cnc4cc(N)ccc4c3)n2cc1S(=O)(=O)C(C)(C)C [Example 92]

>  <Emax>
30 to 55%

$$$$
>  <compound>
CCC(CO)COc1cc2ncc(-c3cc(F)c(N)nc3F)n2cc1S(=O)(=O)C(C)(C)C (centres unmarked) [Example 48]

>  <Emax>
> 80%

$$$$
>  <compound>
C=CS(=O)(=O)Nc1cc(-c2cnc3cc(OC)c(S(=O)(=O)C(C)(C)C)cn23)cc(OC)c1OC [Example 144]

>  <Emax>
> 80%

$$$$
>  <compound>
COc1cc2ncc(-c3cc(F)c(OC)c4[nH]c(CCO)nc34)n2cc1S(=O)(=O)C(C)(C)C [Example 184]

>  <Emax>
30 to 55%

$$$$
>  <compound>
CC(C)(C)S(=O)(=O)c1cn2c(-c3ccc(N)nc3F)cnc2cc1OCCO [Example 249]

>  <Emax>
> 80%

$$$$
